B1: glmS ribozyme (parent)
chain: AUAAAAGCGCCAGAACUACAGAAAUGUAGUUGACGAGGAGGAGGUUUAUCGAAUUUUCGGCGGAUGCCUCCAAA

Variants of: B1
Test: self-cleavage kobs at 640 uM GlcN6P; higher = faster cleavage; RNA array
Conditions: with glucosamine-6-phosphate
Variants at the floor of the assay were thinned out.
Documented self-cleavage kobs at 640 uM GlcN6P across a set of variants
Quantity Name: self-cleavage kobs at 640 uM GlcN6P (s⁻¹)

{"Variant Name": "A48U A64G", "Quantity Name": "self-cleavage kobs at 640 uM GlcN6P", "Qualifier Sign": "=", "Result Value": 0.000385}
{"Variant Name": "G7A G37U U46G U55C C58A", "Quantity Name": "self-cleavage kobs at 640 uM GlcN6P", "Qualifier Sign": "<", "Result Value": "1e-05"}
{"Variant Name": "G13A C70U", "Quantity Name": "self-cleavage kobs at 640 uM GlcN6P", "Qualifier Sign": "=", "Result Value": 0.000154}
{"Variant Name": "A15G U45A", "Quantity Name": "self-cleavage kobs at 640 uM GlcN6P", "Qualifier Sign": "=", "Result Value": 0.025}
{"Variant Name": "G38U G41A U46G U49G", "Quantity Name": "self-cleavage kobs at 640 uM GlcN6P", "Qualifier Sign": "<", "Result Value": "1e-05"}
{"Variant Name": "G35C U57A", "Quantity Name": "self-cleavage kobs at 640 uM GlcN6P", "Qualifier Sign": "<", "Result Value": "1e-05"}
{"Variant Name": "G13C U31G C61U U69C", "Quantity Name": "self-cleavage kobs at 640 uM GlcN6P", "Qualifier Sign": "<", "Result Value": "1e-05"}
{"Variant Name": "G7A C10U C67G", "Quantity Name": "self-cleavage kobs at 640 uM GlcN6P", "Qualifier Sign": "=", "Result Value": "8.24e-05"}
{"Variant Name": "G13U C16U C19A G40U", "Quantity Name": "self-cleavage kobs at 640 uM GlcN6P", "Qualifier Sign": "<", "Result Value": "1e-05"}
{"Variant Name": "G9C C50G G60C C70A", "Quantity Name": "self-cleavage kobs at 640 uM GlcN6P", "Qualifier Sign": "=", "Result Value": 0.000151}
{"Variant Name": "A33C A52C", "Quantity Name": "self-cleavage kobs at 640 uM GlcN6P", "Qualifier Sign": "<", "Result Value": "1e-05"}
{"Variant Name": "G62A G66U", "Quantity Name": "self-cleavage kobs at 640 uM GlcN6P", "Qualifier Sign": "<", "Result Value": "1e-05"}
{"Variant Name": "U30A A39U", "Quantity Name": "self-cleavage kobs at 640 uM GlcN6P", "Qualifier Sign": "=", "Result Value": 0.00188}
{"Variant Name": "U49G C68U", "Quantity Name": "self-cleavage kobs at 640 uM GlcN6P", "Qualifier Sign": "=", "Result Value": "6.17e-05"}
{"Variant Name": "G35C G43U G60C", "Quantity Name": "self-cleavage kobs at 640 uM GlcN6P", "Qualifier Sign": "<", "Result Value": "1e-05"}
{"Variant Name": "U30A G38U", "Quantity Name": "self-cleavage kobs at 640 uM GlcN6P", "Qualifier Sign": "<", "Result Value": "1e-05"}
{"Variant Name": "A6G G32C G51C", "Quantity Name": "self-cleavage kobs at 640 uM GlcN6P", "Qualifier Sign": "<", "Result Value": "1e-05"}
{"Variant Name": "G35U A48C C68A", "Quantity Name": "self-cleavage kobs at 640 uM GlcN6P", "Qualifier Sign": "<", "Result Value": "1e-05"}
{"Variant Name": "G32U U47A", "Quantity Name": "self-cleavage kobs at 640 uM GlcN6P", "Qualifier Sign": "=", "Result Value": "8.3e-05"}
{"Variant Name": "U31A G40A", "Quantity Name": "self-cleavage kobs at 640 uM GlcN6P", "Qualifier Sign": "=", "Result Value": 0.000717}
{"Variant Name": "G35U G59U G66U", "Quantity Name": "self-cleavage kobs at 640 uM GlcN6P", "Qualifier Sign": "<", "Result Value": "1e-05"}
{"Variant Name": "A6C A12U G51U U54G", "Quantity Name": "self-cleavage kobs at 640 uM GlcN6P", "Qualifier Sign": "<", "Result Value": "1e-05"}
{"Variant Name": "C10U A42U", "Quantity Name": "self-cleavage kobs at 640 uM GlcN6P", "Qualifier Sign": "<", "Result Value": "1e-05"}
{"Variant Name": "C8G C67U C70G", "Quantity Name": "self-cleavage kobs at 640 uM GlcN6P", "Qualifier Sign": "<", "Result Value": "1e-05"}
{"Variant Name": "G41U U57G", "Quantity Name": "self-cleavage kobs at 640 uM GlcN6P", "Qualifier Sign": "<", "Result Value": "1e-05"}
{"Variant Name": "C10A A39G", "Quantity Name": "self-cleavage kobs at 640 uM GlcN6P", "Qualifier Sign": "<", "Result Value": "1e-05"}
{"Variant Name": "C10G U47G C70U C71G", "Quantity Name": "self-cleavage kobs at 640 uM GlcN6P", "Qualifier Sign": "=", "Result Value": 0.00148}
{"Variant Name": "A14G C16G U30C", "Quantity Name": "self-cleavage kobs at 640 uM GlcN6P", "Qualifier Sign": "=", "Result Value": "9.39e-05"}
{"Variant Name": "G51U A52G", "Quantity Name": "self-cleavage kobs at 640 uM GlcN6P", "Qualifier Sign": "<", "Result Value": "1e-05"}
{"Variant Name": "A15U A53U", "Quantity Name": "self-cleavage kobs at 640 uM GlcN6P", "Qualifier Sign": "=", "Result Value": 0.000755}
{"Variant Name": "A52G U69G C70U", "Quantity Name": "self-cleavage kobs at 640 uM GlcN6P", "Qualifier Sign": "=", "Result Value": 0.000107}
{"Variant Name": "U45C C68U", "Quantity Name": "self-cleavage kobs at 640 uM GlcN6P", "Qualifier Sign": "=", "Result Value": 0.000525}
{"Variant Name": "C50U C61U", "Quantity Name": "self-cleavage kobs at 640 uM GlcN6P", "Qualifier Sign": "<", "Result Value": "1e-05"}
{"Variant Name": "U55G C67A", "Quantity Name": "self-cleavage kobs at 640 uM GlcN6P", "Qualifier Sign": "=", "Result Value": 0.000772}
{"Variant Name": "U30G C50U A64G G66U", "Quantity Name": "self-cleavage kobs at 640 uM GlcN6P", "Qualifier Sign": "<", "Result Value": "1e-05"}
{"Variant Name": "G38A G41U A42C U45C U54G C68G", "Quantity Name": "self-cleavage kobs at 640 uM GlcN6P", "Qualifier Sign": "<", "Result Value": "1e-05"}
{"Variant Name": "G32U A64C C71A", "Quantity Name": "self-cleavage kobs at 640 uM GlcN6P", "Qualifier Sign": "<", "Result Value": "1e-05"}
{"Variant Name": "A39G C58G", "Quantity Name": "self-cleavage kobs at 640 uM GlcN6P", "Qualifier Sign": "=", "Result Value": "3.89e-05"}
{"Variant Name": "A39G U65G", "Quantity Name": "self-cleavage kobs at 640 uM GlcN6P", "Qualifier Sign": "=", "Result Value": 0.00161}
{"Variant Name": "G9C C67G", "Quantity Name": "self-cleavage kobs at 640 uM GlcN6P", "Qualifier Sign": "<", "Result Value": "1e-05"}
{"Variant Name": "C8U A64C", "Quantity Name": "self-cleavage kobs at 640 uM GlcN6P", "Qualifier Sign": "<", "Result Value": "1e-05"}
{"Variant Name": "A53C G60U A64U U65G", "Quantity Name": "self-cleavage kobs at 640 uM GlcN6P", "Qualifier Sign": "<", "Result Value": "1e-05"}
{"Variant Name": "U65A C68A", "Quantity Name": "self-cleavage kobs at 640 uM GlcN6P", "Qualifier Sign": "=", "Result Value": "8.74e-05"}
{"Variant Name": "A52G U54A C68U", "Quantity Name": "self-cleavage kobs at 640 uM GlcN6P", "Qualifier Sign": "=", "Result Value": "6.73e-05"}
{"Variant Name": "U31A U55G", "Quantity Name": "self-cleavage kobs at 640 uM GlcN6P", "Qualifier Sign": "=", "Result Value": 0.0036}
{"Variant Name": "A14U G62A C70G", "Quantity Name": "self-cleavage kobs at 640 uM GlcN6P", "Qualifier Sign": "=", "Result Value": "5.47e-05"}
